Test system: K4 kissing-loop RNA reporter;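 further: bound reporter read as fluorescence of individual clusters on recovered sequencing chips by microscopy, with normalized cluster intensities fitted with a binding model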
experimentalProtocol: apparent KD of K4 kissing-loop reporter; higher = weaker reporter binding
measurementSetup: Eterna round: R107; input ligand: theophylline 20 uM
I'd appreciate it if you could label each record using apparent KD of K4 kissing-loop reporter and these ranges: lower bin (below 200 nM), middle bin (200 nM to below 400 nM), upper bin (400 nM or more)

[[record]]
residuesequence = "AAAAUAAUCCAGUGAUGUUGGUAUCCAGAUACCAGCCAGGAAACUGGCCCUUGGCAGCUGGCGACGUACAAAAUAAGUACGUCGU [#OpenEnded 11 #StaticStem #K4Early]"
assignedlabel = "upper bin"

[[record]]
residuesequence = "UGAUAGGACAGAAGGAGCGGAAGUGAUGUUUCCAAUGGAUAAAAGGUGUCAAAGACACCCUUCCAGGUAGGUCGCUGUCCUAUCU [ArgBX 17 #Palindromic #SwitchBubble #StaticStem]"
assignedlabel = "lower bin"

[[record]]
residuesequence = "AUUUUGGUUUAGAGUGAUGUUCCUUGUAUUCGAGGACCGGUACGGCCGCCACUCGGAUAGAAAAGAAAAGAAAUGUUUGAUUUUU [BDazzled - #8 SS Tryptophan A]"
assignedlabel = "middle bin"

[[record]]
residuesequence = "UUUCUUUUAAUAACACUUUAUACAACUGAAGGAGCGACAAUAAAGUCAGGUAGGUCGCAGAAUUAAUGAGUGAUGUUCAUAUUUA [JR_ExcArginiA_Sub012]"
assignedlabel = "lower bin"


Consider CUUAAGACAUGAGUGAUGUUCAUGUCCGAAGGAGCGUGCGAAAGCACAGGUAGGUCGCGGACGUGAGUGAUGUUCAUGUAAGCGA [KL-XArg-A11 #analogue] . To which apparent KD of K4 kissing-loop reporter class does it belong?
lower bin

Follow-up item: ACCAUCAAAGAUGGCCAGGACUCAACUGAUACCAGAGUGGAAACACUCCCUUGGCAGCAGGUGAGUGAUGUUCACGAGUCCUGGA [Omel KL Theo A SS B v8]
upper bin

Follow-up item: AGUACGGACGCGGCCGCCACUCAGAAGAAGACGGUAGUGAUGUUACUGAUGGUGAGAACAAUAAAGAGGACCGGGUGUCGUGCAA [#06 K4 Tryptophan B Same State]
middle bin

Follow-up item: UACUAACGUUAAGGAUAUGCGUCGAUUACCGGUAAGUGAUGUUUAGCGCCCGGGCAACGGUGGGUCGCAGAAGGUAAACACAGUU [theeternabot_sameState_KL_FMN_B_19]
upper bin

Follow-up item: UGUGUUGUUUUGAUGUUUGGUGUUUGUUGGCAGGAUAUCGUAGAGGCGAGAAGGGCUUUGUUGCGGUAUGAGUGAUGUUUGUAGG [szzrmullin]
middle bin

Follow-up item: UCCAAGGACGAACCGGUAUGAUCACCGGAUACCAGAGGCGAAAGCCUCCCUUGGCAGCCGAGUGUAGUGAUGUUACACUGGUUCU
lower bin

Follow-up item: UGUACCGAGUCAGGAUAUGGCGUCGAAAGACGAAUCGUAGUGAUGUUACGGAUCUGCGAAAGCAGUCCAGAAGGGACUUGGUACU [FmnBS 26 G37+C49]
lower bin

Follow-up item: AGUCCACUCUAAAGAGUGGACCUAAGGGAUACCAGUGAUGUUGGUCACCCUUGGCAGCCCGCUGUCAUCGAUAAAGAUGGCAGUA
lower bin
